System: Substance P Induced Relaxation of the Pig Coronary Arteries
Assay: Antagonism of substance P induced relaxation of the pig coronary arteries
Details: test compound concentration 3 × 10^-9 (unit not given), 30 min incubation
MEASURE NAME: % inhibition of the response to 10^-9 M substance P (%)
Report the figure in % without appending any unit label.

Known % inhibition of the response to 10^-9 M substance P results, listed for orientation:
MOLECULE	MEASURED RESULT
O=C(c1cc(C(F)(F)F)cc(C(F)(F)F)c1)N1CC[C@H](N2CCC(=C3c4ccccc4CCn4c3nc3ccccc34)CC2)C[C@H]1Cc1ccccc1 (relative stereo)	97.4
Cc1cc(C)cc(C(=O)N2CC[C@H](N3CCC(=C4c5ccc(C)cc5CCn5ccnc54)CC3)C[C@H]2Cc2ccccc2)c1 (relative stereo)	66.7
O=C(c1cc(C(F)(F)F)cc(C(F)(F)F)c1)N1CC[C@@H](N2CCC(C3c4ccccc4Cn4c3nc3ccccc34)CC2)C[C@H]1Cc1ccccc1 (mixture of isomers)	56.6

For the molecule Cc1cc(C)cc(C(=O)N2CC[C@H](N3CCC(=C4c5ccccc5CCn5ccnc54)CC3)C[C@H]2Cc2ccccc2)c1 (relative stereo) , the measured % inhibition of the response to 10^-9 M substance P on Substance P Induced Relaxation of the Pig Coronary Arteries was 40.6

For the molecule O=C1Cn2ccnc2C(=C2CCN([C@@H]3CCN(C(=O)c4cc(C(F)(F)F)cc(C(F)(F)F)c4)[C@@H](Cc4ccccc4)C3)CC2)c2ccsc21 (relative stereo) , the measured % inhibition of the response to 10^-9 M substance P on Substance P Induced Relaxation of the Pig Coronary Arteries was 96.3

For the molecule CC(C(=O)N1CCC(N2CCC(=C3c4ccccc4CCn4ccnc43)CC2)CC1Cc1ccccc1)c1ccccc1 (centres unmarked) , the measured % inhibition of the response to 10^-9 M substance P on Substance P Induced Relaxation of the Pig Coronary Arteries was 1.8

For the molecule O=C(c1cc(C(F)(F)F)cc(C(F)(F)F)c1)N1CC[C@@H](N2CCC(=C3c4ccccc4OCn4ccnc43)CC2)C[C@@H]1Cc1ccccc1 (relative stereo) , the measured % inhibition of the response to 10^-9 M substance P on Substance P Induced Relaxation of the Pig Coronary Arteries was 100.0

For the molecule Cc1cc(C)cc(C(=O)N2CC[C@H](N3CCC(=C4c5ccccc5CCn5c4nc(CO)c5CO)CC3)C[C@@H]2Cc2ccccc2)c1 (relative stereo) , the measured % inhibition of the response to 10^-9 M substance P on Substance P Induced Relaxation of the Pig Coronary Arteries was 7.5

For the molecule O=C(c1cc(C(F)(F)F)cc(C(F)(F)F)c1)N1CC[C@H](N2CCC(C3c4ccccc4CCn4c3nc3ccccc34)CC2)C[C@H]1Cc1ccc(F)c(F)c1 (some centres unmarked) , the measured % inhibition of the response to 10^-9 M substance P on Substance P Induced Relaxation of the Pig Coronary Arteries was 93.1

For the molecule Cc1cc(C)cc(C(=O)N2CC[C@H](N3CCC(=C4c5ccccc5CCn5c4nc4ccccc45)CC3)C[C@H]2Cc2ccccc2)c1 (relative stereo) , the measured % inhibition of the response to 10^-9 M substance P on Substance P Induced Relaxation of the Pig Coronary Arteries was 54.3

For the molecule O=C(c1cc(C(F)(F)F)cc(C(F)(F)F)c1)N1CC[C@@H](N2CCC(=C3c4ccccc4CCn4ccnc43)CC2)C[C@H]1Cc1ccccc1 (relative stereo) , the measured % inhibition of the response to 10^-9 M substance P on Substance P Induced Relaxation of the Pig Coronary Arteries was 13.4

---

Catalogue of molecules with associated % inhibition of the response to 10^-9 M substance P
Tested on: Substance P Induced Relaxation of the Pig Coronary Arteries
Experiment: Antagonism of substance P induced relaxation of the pig coronary arteries
Settings: test compound concentration 3 × 10^-9 (unit not given), 30 min incubation
Report the figure in % without appending any unit label.

Known % inhibition of the response to 10^-9 M substance P results, listed for orientation:
MOLECULE	U	MEASURED RESULT
O=C1Cn2ccnc2C(=C2CCN([C@H]3CCN(C(=O)c4cc(C(F)(F)F)cc(C(F)(F)F)c4)[C@@H](Cc4ccccc4)C3)CC2)c2ccsc21 (relative stereo) [Compound 106]	%	92.3
Cc1cn2c(n1)C(=C1CCN([C@H]3CCN(C(=O)c4cc(C(F)(F)F)cc(C(F)(F)F)c4)[C@@H](Cc4ccccc4)C3)CC1)c1ccn(C)c1CC2 (relative stereo) [Compound 59]	%	76.5
Cc1cc(C)cc(C(=O)N2CC[C@@H](N3CCC(=C4c5ccccc5CCn5c(CO)cnc54)CC3)C[C@@H]2Cc2ccccc2)c1 (relative stereo) [Compound 20]	%	9.5
Cc1cc(C)cc(C(=O)N2CC[C@H](N3CCC(=C4c5sccc5CCn5ccnc54)CC3)C[C@H]2Cc2ccccc2)c1 (relative stereo) [Compound 37]	%	81.9

For the molecule COC(=O)c1cnc2n1CCc1ccccc1C2=C1CCN([C@H]2CCN(C(=O)c3cc(C(F)(F)F)cc(C(F)(F)F)c3)[C@@H](Cc3ccccc3)C2)CC1 (racemic) [Compound 17] , the measured % inhibition of the response to 10^-9 M substance P on Substance P Induced Relaxation of the Pig Coronary Arteries was 35.3

For the molecule Cc1cc(C)cc(C(=O)N2CCC(N3CCC(=C4c5ccccc5CCn5c(C)cnc54)CC3)CC2Cc2ccccc2)c1 (stereo not drawn) [Compound 28] , the measured % inhibition of the response to 10^-9 M substance P on Substance P Induced Relaxation of the Pig Coronary Arteries was 37.4

---

Catalogue of compounds with associated % inhibition of the response to 10^-9 M substance P
Test system: Substance P Induced Relaxation of the Pig Coronary Arteries
Test: Antagonism of substance P induced relaxation of the pig coronary arteries
Settings: test compound concentration 3 × 10^-9 (unit not given), 30 min incubation
Report the figure in % without appending any unit label.

Known % inhibition of the response to 10^-9 M substance P results, listed for orientation:
> print(dat)
                                   compound  measured.result
1  Cc1cc(C)cc(C(=O)N2CCC(N3CCC(=C4c5cccc(C)c5CCn5ccnc54)CC3)CC2Cc2ccccc2)c1 (stereo not drawn)              8.1
2  O=C(c1cc(C(F)(F)F)cc(C(F)(F)F)c1)N1CC[C@H](N2CCC(=C3c4ccccc4CCn4c3nc(CO)c4CO)CC2)C[C@@H]1Cc1ccccc1 (relative stereo)             77.8

Let us examine a further case.
For the compound O=C(c1cc(C(F)(F)F)cc(C(F)(F)F)c1)N1CC[C@H](N2CCC(=C3c4ccccc4OCn4ccnc43)CC2)C[C@@H]1Cc1ccccc1 (relative stereo) , the measured % inhibition of the response to 10^-9 M substance P on Substance P Induced Relaxation of the Pig Coronary Arteries was 87.9

---

System: Substance P Induced Relaxation of the Pig Coronary Arteries
Assay: Antagonism of substance P induced relaxation of the pig coronary arteries
Settings: test compound concentration 3 × 10^-9 (unit not given), 30 min incubation
Returns one of 1 (yes) or 0 (no); 1 (yes) when % inhibition of the response to 10^-9 M substance P is >= 20%.

These solved cases illustrate the format of a correct answer.
COMPOUND	ASSIGNED CLASS
Cc1cc(C)cc(C(=O)N2CCC(N3CCC(C4c5ccccc5Cn5ccnc54)CC3)CC2Cc2ccccc2)c1 (stereo not drawn) [Compound 108]	0 (no)
CC(C(=O)N1CC[C@@H](N2CCC(C3c4ccccc4Cn4c3nc3ccccc34)CC2)C[C@@H]1Cc1ccccc1)c1ccccc1 (stereo partly drawn) [Compound 99]	0 (no)
Cc1cc(C)cc(C(=O)N2CC[C@@H](N3CCC(=C4c5sccc5CCn5ccnc54)CC3)C[C@H]2Cc2ccccc2)c1 (relative stereo) [Compound 35]	1 (yes)
O=C(c1cc(C(F)(F)F)cc(C(F)(F)F)c1)N1CC[C@@H](N2CCC(C3c4ccccc4Cn4ccnc43)CC2)C[C@@H]1Cc1ccccc1 (stereo partly drawn) [Compound 116]	1 (yes)

Exam item: decide whether the reported % inhibition of the response to 10^-9 M substance P for Cc1cc(C(=O)N2CC[C@@H](N3CCC(C4c5ccccc5Cn5c4nc4ccccc45)CC3)C[C@@H]2Cc2ccccc2)no1 (stereo partly drawn) [Compound 97] is at least 20%.
0 (no)

Exam item: decide whether the reported % inhibition of the response to 10^-9 M substance P for O=C(c1ccc2ccccc2c1)N1CC[C@H](N2CCC(=C3c4ccccc4CCn4ccnc43)CC2)C[C@@H]1Cc1ccccc1 (relative stereo) [Compound 84] is at least 20%.
0 (no)

---

Catalogue of compounds with associated minimal effective dose
Tested on: Substance P Induced Plasma Extravasation
Experiment: Antagonism of substance P induced plasma extravasation in guinea-pigs
Assay type: in vivo, guinea-pig
Conditions: Cavia porcellus, sc, 0.5 h; s.c., 1 hour prior to substance P; urinary bladder; read-out: lowest active dose (LAD), urinary bladder
Report the figure in mg/kg without appending any unit label.

Known minimal effective dose results, listed for orientation:
> print(dat)
                                   compound      u  measured.result
1  O=C(c1cc(C(F)(F)F)cc(C(F)(F)F)c1)N1CC[C@H](N2CCC(=C3c4ccccc4CCn4c3nc(CO)c4CO)CC2)C[C@@H]1Cc1ccccc1 (relative stereo)  mg/kg              2.5
2  O=C(c1cc(C(F)(F)F)cc(C(F)(F)F)c1)N1CC[C@@H](N2CCC(=C3c4ccsc4CCn4ccnc43)CC2)C[C@H]1Cc1ccccc1 (relative stereo)  mg/kg               10
3  O=C(c1cc(C(F)(F)F)cc(C(F)(F)F)c1)N1CC[C@H](N2CCC3(CC2)c2ccccc2CCn2ccnc23)C[C@@H]1Cc1ccccc1 (relative stereo)  mg/kg               10
4  Cn1ccc2c1CCn1ccnc1C2=C1CCN([C@@H]2CCN(C(=O)c3cc(C(F)(F)F)cc(C(F)(F)F)c3)[C@@H](Cc3ccccc3)C2)CC1 (racemic)  mg/kg              2.5

The compound listed as O=C(c1cc(C(F)(F)F)cc(C(F)(F)F)c1)N1CC[C@@H](N2CCC(=C3c4sccc4CCn4ccnc43)CC2)C[C@@H]1Cc1ccccc1 (relative stereo) shows minimal effective dose equal to 10

The compound listed as O=C(c1cc(C(F)(F)F)cc(C(F)(F)F)c1)N1CC[C@@H](N2CCC(=C3c4ccsc4CCn4ccnc43)CC2)C[C@@H]1Cc1ccccc1 (relative stereo) shows minimal effective dose equal to 10

The compound listed as Cc1cc(C)cc(C(=O)N2CC[C@H](N3CCC(=C4c5ccsc5C(=O)Cn5ccnc54)CC3)C[C@@H]2Cc2ccccc2)c1 (relative stereo) shows minimal effective dose equal to 10

The compound listed as Cc1cnc2n1CCc1ccccc1C2=C1CCN([C@H]2CCN(C(=O)c3cc(C(F)(F)F)cc(C(F)(F)F)c3)[C@H](Cc3ccccc3)C2)CC1 (relative stereo) shows minimal effective dose equal to 2.5

The compound listed as Cn1ccc2c1CCn1ccnc1C2=C1CCN([C@H]2CCN(C(=O)c3cc(C(F)(F)F)cc(C(F)(F)F)c3)[C@@H](Cc3ccccc3)C2)CC1 (racemic) shows minimal effective dose equal to 10

The compound listed as Cc1cc(C)cc(C(=O)N2CC[C@@H](N3CCC(=C4c5ccccc5CCn5c(CO)cnc54)CC3)C[C@@H]2Cc2ccccc2)c1 (relative stereo) shows minimal effective dose equal to 2.5

The compound listed as Cc1cc(C)cc(C(=O)N2CC[C@@H](N3CCC(C4c5ccccc5CCn5ccnc54)CC3)C[C@H]2Cc2ccccc2)c1 (some centres unmarked) shows minimal effective dose equal to 10
